As shown below, each of these molecules has a reported melting point value.

Below, 3 molecules whose answers are already recorded.
structure_string=O=c1c(O)c(-c2ccc(O)c(O)c2)oc2cc(OCc3ccc([N+](=O)[O-])cc3)cc(O)c12 reported="253.5 to 254.5 °C"
structure_string=Nc1ccc(C(=O)Oc2c(-c3ccc(O)c(O)c3)oc3cc(O)cc(O)c3c2=O)cc1 reported="233 to 234 °C"
structure_string=COc1cccc(C(=O)Oc2c(-c3ccc(O)c(O)c3)oc3cc(O)cc(O)c3c2=O)c1 reported="173 to 174 °C"

Now consider a different molecule.
# input Name the recorded melting point for `N#Cc1ccc(COc2cc(O)c3c(=O)c(O)c(-c4ccc(O)c(O)c4)oc3c2)cc1` .
# output 252 to 254 °C

----------
As shown below, each of these molecules has a reported CC50 value.
test: Cell viability / cytotoxicity by MTT method; assay type: cell-based; conditions: human
// note: answer is a bare numeric in µM

Below, 5 molecules whose answers are already recorded.
molecule="O=c1c(O)c(-c2ccc(O)c(O)c2)oc2cc(OCc3cccc([N+](=O)[O-])c3)cc(O)c12 [Compound 3m]" reported=15
molecule="O=c1c(O)c(-c2ccc(O)c(O)c2)oc2cc(OCc3ccccc3[N+](=O)[O-])cc(O)c12 [Compound 3g]" reported=14.6
molecule="Cc1ccc(COc2cc(O)c3c(=O)c(O)c(-c4ccc(O)c(O)c4)oc3c2)cc1 [Compound 3q]" reported=15.9
molecule="O=c1c(O)c(-c2ccc(O)c(O)c2)oc2cc(OCc3ccc(Cl)cc3)cc(O)c12 [Compound 3o]" reported=15.1
molecule="N#Cc1ccc(COc2cc(O)c3c(=O)c(O)c(-c4ccc(O)c(O)c4)oc3c2)cc1 [Compound 3r]" reported=10.1

# input Name the recorded CC50 for O=c1c(O)c(-c2ccc(O)c(O)c2)oc2cc(OCc3cccc(Cl)c3)cc(O)c12 [Compound 3i] .
# output 27.2

# input Name the recorded CC50 for Cc1cccc(COc2cc(O)c3c(=O)c(O)c(-c4ccc(O)c(O)c4)oc3c2)c1 [Compound 3k] .
# output 32.5

# input Name the recorded CC50 for O=c1c(O)c(-c2ccc(O)c(O)c2)oc2cc(OCc3cccc(Br)c3)cc(O)c12 [Compound 3j] .
# output 22.3

# input Name the recorded CC50 for O=c1c(O)c(-c2ccc(O)c(O)c2)oc2cc(OCc3ccccc3Br)cc(O)c12 [Compound 3d] .
# output 37.4

# input Name the recorded CC50 for COc1ccc(C(=O)Oc2c(-c3ccc(O)c(O)c3)oc3cc(O)cc(O)c3c2=O)cc1 [Compound 4m] .
# output 33.9

# input Name the recorded CC50 for O=c1c(O)c(-c2ccc(O)c(O)c2)oc2cc(OCc3ccccc3Cl)cc(O)c12 [Compound 3c] .
# output 36.7

# input Name the recorded CC50 for CC(C)Oc1c(-c2ccc(O)c(O)c2)oc2cc(O)cc(O)c2c1=O [Compound 12b] .
# output 28.8

----------
assay: Cell viability / cytotoxicity by MTT method; format: cell-based; details: human; Huh7.5.1 cells, MTT; concentration required to reduce cell proliferation by 50%; average of duplicate determinations; read-out: CC50
As shown below, each of these molecules has a reported CC50 value.

Below, 2 molecules whose answers are already recorded.
molecule="Nc1ccccc1C(=O)Oc1c(-c2ccc(O)c(O)c2)oc2cc(O)cc(O)c2c1=O [Compound 4c]" reported="> 50 µM"
molecule="N#Cc1cccc(COc2cc(O)c3c(=O)c(O)c(-c4ccc(O)c(O)c4)oc3c2)c1 [Compound 3l]" reported="10.6 µM"

Now consider a different molecule.
# input Name the recorded CC50 for O=c1c(O)c(-c2ccc(O)c(O)c2)oc2cc(O)cc(O)c12 [Compound 2, quercetin] .
# output > 50 µM

----------
experiment: Cell viability / cytotoxicity by MTT method; format: cell-based; conditions: human
Readout type: CC50 (µM)
// note: answer is a bare numeric in µM

structure_string=Cc1ccccc1COc1cc(O)c2c(=O)c(O)c(-c3ccc(O)c(O)c3)oc2c1 unit_abbrev=µM reported=21.7
structure_string=O=c1c(O)c(-c2ccc(O)c(O)c2)oc2cc(OCc3ccc([N+](=O)[O-])cc3)cc(O)c12 unit_abbrev=µM reported=19.6

# input Name the recorded CC50 for `O=c1c(O)c(-c2ccc(O)c(O)c2)oc2cc(OCc3cccc(F)c3)cc(O)c12` .
# output 44.5

----------
As shown below, each of these molecules has a reported melting point value.

Below, 5 molecules whose answers are already recorded.
molecule="O=C(Oc1c(-c2ccc(O)c(O)c2)oc2cc(O)cc(O)c2c1=O)c1ccc(F)cc1 [Compound 4k]" reported="203 to 205 °C"
molecule="O=c1c(O)c(-c2ccc(O)c(O)c2)oc2cc(OCc3cccc(Br)c3)cc(O)c12 [Compound 3j]" reported="234 to 236 °C"
molecule="O=C(Oc1c(-c2ccc(O)c(O)c2)oc2cc(O)cc(O)c2c1=O)c1cccc(F)c1 [Compound 4f]" reported="211 to 213 °C"
molecule="N#Cc1cccc(C(=O)Oc2c(-c3ccc(O)c(O)c3)oc3cc(O)cc(O)c3c2=O)c1 [Compound 4i]" reported="142 to 143 °C"
molecule="O=C(Oc1c(-c2ccc(O)c(O)c2)oc2cc(O)cc(O)c2c1=O)c1ccccc1F [Compound 4b]" reported="186 to 187 °C"

# input Name the recorded melting point for O=c1c(O)c(-c2ccc(O)c(O)c2)oc2cc(OCc3ccc(Br)cc3)cc(O)c12 [Compound 3p] .
# output 256 to 257 °C

# input Name the recorded melting point for O=c1c(O)c(-c2ccc(O)c(O)c2)oc2cc(OCc3ccccc3[N+](=O)[O-])cc(O)c12 [Compound 3g] .
# output 260 to 261 °C

# input Name the recorded melting point for N#Cc1ccccc1C(=O)Oc1c(-c2ccc(O)c(O)c2)oc2cc(O)cc(O)c2c1=O [Compound 4e] .
# output 196 to 197 °C

----------
As shown below, each of these molecules has a reported SI (selectivity index) value.
test system: HCV infectious virus J399EM; assay: Anti-HCV assay in authentic HCV infection/replication system (J399EM EGFP reporter virus) in Huh7.5.1 cells; format: cell-based, hepatitis C virus (JFH1-derived, genotype 2a); details: ratio of CC50 to EC50, Huh7.5.1 cells
// keep it numeric: no unit symbol after the value

Below, 5 molecules whose answers are already recorded.
structure_string=N#Cc1cccc(COc2cc(O)c3c(=O)c(O)c(-c4ccc(O)c(O)c4)oc3c2)c1 readout_type="SI (selectivity index)" reported=2.0
structure_string=O=c1c(O)c(-c2ccc(O)c(O)c2)oc2cc(OCc3cccc([N+](=O)[O-])c3)cc(O)c12 readout_type="SI (selectivity index)" reported=2.3
structure_string=Cc1cccc(COc2cc(O)c3c(=O)c(O)c(-c4ccc(O)c(O)c4)oc3c2)c1 readout_type="SI (selectivity index)" reported=6.9
structure_string=O=c1c(O)c(-c2ccc(O)c(O)c2)oc2cc(OCc3ccccc3Cl)cc(O)c12 readout_type="SI (selectivity index)" reported=7.7
structure_string=O=c1c(O)c(-c2ccc(O)c(O)c2)oc2cc(OCc3ccc(F)cc3)cc(O)c12 readout_type="SI (selectivity index)" reported=6.2

# input Name the recorded SI (selectivity index) for `O=c1c(O)c(-c2ccc(O)c(O)c2)oc2cc(OCc3ccccc3Br)cc(O)c12` .
# output 6.8

----------
Tested on: HCV infectious virus J399EM
Test: Anti-HCV assay in authentic HCV infection/replication system (J399EM EGFP reporter virus) in Huh7.5.1 cells
Assay type: cell-based, hepatitis C virus (JFH1-derived, genotype 2a)
Details: ratio of CC50 to EC50, Huh7.5.1 cells
Procedure: The inhibition of HCV by all synthesized quercetin derivatives was evaluated following a previously reported procedure. […] The cytotoxicity effect of the test compounds was also evaluated in the same cell line by MTT method. […] The stability of quercetin-3-O-ester compounds were also tested in the same buffer as the antiviral activity assay at 37 °C and the hydrolysate was measured by HPLC. […]
Readout type: SI (selectivity index)
// keep it numeric: no unit symbol after the value

Below, 4 compounds whose answers are already recorded.
compound="O=C(Oc1c(-c2ccc(O)c(O)c2)oc2cc(O)cc(O)c2c1=O)c1ccc(F)cc1 [Compound 4k]" tested_system="HCV infectious virus J399EM" readout_type="SI (selectivity index)" reported=3.6
compound="O=c1c(O)c(-c2ccc(O)c(O)c2)oc2cc(OCc3cccc(Br)c3)cc(O)c12 [Compound 3j]" tested_system="HCV infectious virus J399EM" readout_type="SI (selectivity index)" reported=5.4
compound="Cc1ccc(COc2cc(O)c3c(=O)c(O)c(-c4ccc(O)c(O)c4)oc3c2)cc1 [Compound 3q]" tested_system="HCV infectious virus J399EM" readout_type="SI (selectivity index)" reported=2.4
compound="COc1ccc(C(=O)Oc2c(-c3ccc(O)c(O)c3)oc3cc(O)cc(O)c3c2=O)cc1 [Compound 4m]" tested_system="HCV infectious virus J399EM" readout_type="SI (selectivity index)" reported=2.5

Now consider a different compound.
# input Name the recorded SI (selectivity index) for CC(C)Oc1c(-c2ccc(O)c(O)c2)oc2cc(O)cc(O)c2c1=O [Compound 12b] .
# output 0.7
